Listing: growth inhibition of selected molecules
Assay: NCI Yeast Anticancer Drug Screen. Data for the mec2-1 strain (AID 157)
Conditions: S. cerevisiae mec2-1 strain, at 50.0 µM, hits give high values
About 79,000 compounds went through this panel and 15% of them were active in at least one assay; those are over-represented in the sample as a whole. Active and inactive are the calls of the source. Rule as the data show it: active = growth inhibition above about 70%; inactive = the rest.

Request: If you can, please state the reported growth inhibition value of CC(=O)[O-].[Mn+3].[O-]c1ccccc1C=NCCNCCN=Cc1ccccc1[O-] .
Response: 8.1% (inactive)

Request: Record: CN(C)CCNC(=O)c1ccc(C(=O)NCCN(C)C)c2c(C(=O)NCCN(C)C)ccc(C(=O)NCCN(C)C)c12
Response: 41.3% (inactive)

Request: Do the same for Cc1cc(=O)n2c(n1)Nc1ccccc1C2 please
Response: -26% (inactive)

Request: Similarly, COC(=O)NC(c1ccccc1)C(C)I (configuration not stated) ?
Response: -0.6% (inactive)

Request: Field entry: CN(C)/C=N/c1nc2ncn(CCOC(=O)c3ccccc3)c2c(=O)[nH]1
Response: -24.6% (inactive)

Request: Item: Nc1ncnc2c1nnn2CC(O)CO (configuration not stated)
Response: -19.2% (inactive)

Request: What do you have for O=C1CCCCC1CO (configuration not stated) ?
Response: 1.5% (inactive)

Request: Lookup CO/C(N)=C(\C#N)N=Cc1ccco1
Response: -22.4% (inactive)

Request: What do you have for Clc1ccc(/C=C/c2ccc3ccccc3n2)cc1 ?
Response: -11.6% (inactive)

Request: And then COc1ncc(/C=C2\OC(=O)c3ccccc32)c(OC)n1 , what is it?
Response: -16.1% (inactive)

Request: Next: COC(=O)C(Cc1cn(C(C)=O)c2ccccc12)P(=O)(OC)OC (configuration not stated)
Response: -40.1% (inactive)

Request: Same thing, different molecule: O=C(O)C1Cc2c([nH]c3ccccc23)C(c2cccs2)N1 (configuration not stated)
Response: 7.6% (inactive)

* * *

Experiment: NCI Yeast Anticancer Drug Screen. Data for the bub3 strain (AID 167)
Conditions: S. cerevisiae bub3 mutant strain, at 50.0 µM, hits give high values
Description: Growth inhibition of yeast strains with defined genetic alterations is measured as a screen for potential anti-cancer activity. Selected strains with alterations in DNA damage repair or cell cycle control were exposed to compounds and growth inhibition was measured relative to vehicle treated controls. The strain used in this assay is bub3
The panel holds about 79,000 compounds, 15% with a hit somewhere; the sample as a whole holds those more often.
quantity_name: growth inhibition (%)
Just the number in %, nothing appended.

Request: Data request, read-out growth inhibition, for CCCCN1C[C@H](OC(=O)CCC)[C@@H](OC(=O)CCC)[C@H](OC(=O)CCC)[C@H]1COC(=O)CCC
Response: -23.9

Request: Can you handle Cn1c(N)c2c(=O)n(C)c3c(c2c(C#N)c1=O)CCSc1ccccc1-3 next?
Response: -5.2

Request: Another compound to check: CN(C)CC(=O)N1CCc2c([nH]c3ccccc23)C1c1cccnc1 (stereo not given)
Response: -15.3

Request: COc1ccc(-c2c(O)c3cccc(-c4ccccc4)c3oc2=O)cc1 ?
Response: 15

Request: Now consider Cc1cccc(Cl)c1NC(=O)N(C)c1ccccc1 .
Response: 23.9

* * *

Assay: NCI Yeast Anticancer Drug Screen. Data for the mlh1 rad18 strain (AID 175)
Conditions: S. cerevisiae mlh1 rad18 strain growth inhibition; at 50.0 µM
Compounds without any hit were thinned out: in the full panel of roughly 79,000, 15% have a hit. Activity calls are given as the source filed them. No stated cut-off is given here; in the data, active means growth inhibition above about 70%; inactive means the rest.
Hi! Could you answer with just one of these? active, inactive

Some solved cases for reference:
- molecule: "C#CC(C)(C)CC"
  assigned_class: "inactive"
- molecule: "CC(=O)OCC1OC(n2cc([N+](=O)[O-])c(=O)[nH]c2=O)C(OC(C)=O)C(OC(C)=O)C1OC(C)=O (stereo unspecified)"
  assigned_class: "inactive"
- molecule: "COC1CC2CC1C1COCC21 (stereo unspecified)"
  assigned_class: "inactive"
- molecule: "O=c1onc2c3ccccc3ncn12"
  assigned_class: "inactive"
- molecule: "CCC(O)(c1ccc(OC)cc1)C(c1ccc(OCc2ccccc2)cc1)c1ccc(OCc2ccccc2)cc1 (stereo unspecified)"
  assigned_class: "inactive"

Request: I'd appreciate the recorded outcome for COc1ccc(C(=O)c2cc(S(=O)(=O)O)c(OC)cc2O)c(O)c1 from this test.
Response: inactive

Request: Another: CCOC(=O)C1CCC(=O)C(CC)=C1C (stereo unspecified)
Response: inactive

Request: Cool, now COc1ccc(CC2(Cc3ccc(OC)cc3)CCOC2=O)cc1
Response: inactive

Request: Then this molecule: CCOC(=O)CC(=O)C(=O)NNC1=NCCN1
Response: inactive

Request: Next entry: Cc1ccc(S(=O)(=O)C(c2ccccc2)C(Br)C(=O)c2ccccc2)cc1 (stereo unspecified)
Response: inactive

Request: Nc1cc(NC(=O)CO)cc(C(=O)O)c1 ?
Response: inactive

Request: // same read-out, input: COc1ccc(/C=N/Nc2nc3ccccc3s2)cc1
Response: inactive

* * *

Test: NCI Yeast Anticancer Drug Screen. Data for the bub3 strain (AID 167)
Conditions: S. cerevisiae bub3 mutant strain, at 50.0 µM, hits give high values
About 79,000 compounds went through this panel and 15% of them were active in at least one assay; those are over-represented in the sample as a whole.
# maps each entry to its growth inhibition
Numeric answer only, unit % assumed.

Request: What measured growth inhibition goes with COc1ccc2c(c1)C(=O)C(CO)C(C(=O)O)C2 (configuration not stated) ?
Response: -3.5

Request: Entry to check: CCOC(=O)C(=O)C(/C(=N/N(C)C)C(=O)Nc1ccc(C)cc1C)c1nc2ccccc2[nH]c1=O (configuration not stated)
Response: 1

Request: Please give the result for Fc1ccccc1N=Cc1ccc(C=Nc2ccccc2F)cc1 too.
Response: 45.6

Request: For O=C1CSC(=S)N1 then?
Response: -7.15

Request: Next up: CCN(C)c1ccccc1
Response: -6.6

* * *

Test: NCI Yeast Anticancer Drug Screen. Data for the cln2 rad14 strain (AID 165);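 also: 0% = growth equal to vehicle treated cultures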
Conditions: S. cerevisiae cln2 rad14 strain, at 50.0 µM, hits give high values
About 79,000 compounds went through this panel and 15% of them were active in at least one assay; those are over-represented in the sample as a whole.
Quick reference for growth inhibition among some molecules
Report only the number, with the unit % understood.

Request: Requested read-out: growth inhibition. Entry: COC(=O)C(/C(=N\NC(N)=S)C(=O)Nc1ccccc1[N+](=O)[O-])c1cnc2ccccc2n1 (stereo not given)
Response: 2.1

Request: Next entry: Cc1cc(Cl)ccc1NC(=O)C1C(=O)N(c2ccc(Cl)cc2C)C(=O)/C1=N\NC(N)=S (stereo not given)
Response: -0.25

Request: Also check Nc1ncnc2c(C3OC(CO)C(O)C3O)nsc12 (stereo not given)
Response: -15.2

* * *

Test: NCI Yeast Anticancer Drug Screen. Data for the cln2 rad14 strain (AID 165);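 also: 0% = growth equal to vehicle treated cultures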
Details: S. cerevisiae cln2 rad14 strain, at 50.0 µM, hits give high values
Compounds without any hit were thinned out: in the full panel of roughly 79,000, 15% have a hit.
quantity_name: growth inhibition (%)
Please respond with the number in % and leave the unit unwritten.

- molecule: "CCCCCCCCCCCC1=C(O)C(=O)C(I)=C(O)C1=O"
  measured_number: 51.3

Request: I would be grateful if you could share the reported growth inhibition for Cc1cc(C)cc(Sc2c([N+](=O)[O-])ncn2C)c1 .
Response: 21.1

Request: Now the molecule CCN(CC)C1Oc2cc3c(cc2C(c2cc(OC)c(O)c(OC)c2)C1C)OCO3 (configuration not stated)
Response: 3.35

* * *

growth inhibition by entry:
Assay: NCI Yeast Anticancer Drug Screen. Data for the cln2 rad14 strain (AID 165);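 also: 0% = growth equal to vehicle treated cultures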
Conditions: S. cerevisiae cln2 rad14 strain, at 50.0 µM, hits give high values
Method: Growth inhibition of yeast strains with defined genetic alterations is measured as a screen for potential anti-cancer activity. Selected strains with alterations in DNA damage repair or cell cycle control were exposed to compounds and growth inhibition was measured relative to vehicle treated controls. The strain used in this assay is cln2 rad14
The panel holds about 79,000 compounds, 15% with a hit somewhere; the sample as a whole holds those more often.
Give the quantity in %, number only.

- compound: "CC(=O)c1ccc(Cl)c(-n2cccc2)c1"
  measured_number: 17.6
- compound: "COc1ccc(/C=N/NC(N)=S)cc1"
  measured_number: -13
- compound: "CS(=O)(=O)c1nsc(N)n1"
  measured_number: 2.15
- compound: "CCOc1ccccc1NC(=O)C(Br)C(Br)c1ccccc1 (stereo unspecified)"
  measured_number: -20.9
- compound: "CC1(C)O[C@H]2Cn3c(c(C#N)c4ccccc43)[C@H]2O1"
  measured_number: -11.1
- compound: "Cc1ccc(S(=O)(=O)OCC(C)C(c2ccccc2)c2ccccc2)cc1 (stereo unspecified)"
  measured_number: -20.9
- compound: "Clc1cc(OC2C3CC4CC(C3)CC2C4)nc(Cl)n1 (stereo unspecified)"
  measured_number: -1.1
- compound: "CCCC[N+](C)(C)CC[N+](C)(C)CCCC"
  measured_number: -36.3
- compound: "O=C1OC(c2ccccc2Cl)Sc2ccccc21 (stereo unspecified)"
  measured_number: -30.7
- compound: "O=[N+]([O-])c1ccc2c(c1)Cc1cc([N+](=O)[O-])ccc1-2"
  measured_number: -181

Request: Look up growth inhibition: Cc1cc([N+](=O)[O-])ccn1
Response: -4.5

Request: Ok, now CCCCCCCCCCN(CCCCCCCCCC)C(C)C(O)c1ccc2cc(Br)c3ccccc3c2c1 (stereo unspecified)
Response: -16.9

Request: Quick one: CCCCn1nnnc1N
Response: 12

Request: Do the same for N/N=C(\c1nc2ccc([N+](=O)[O-])cc2[nH]c1=O)C(O)c1ccc(Cl)c(Cl)c1 (stereo unspecified) please
Response: -12.7

Request: Follow-up entry: C1CCCC(N2N=NC3C4CC(C5N=NN(C6CCCCCC6)C45)C32)CC1 (stereo unspecified)
Response: 64.8

Request: Lookup O=S(=O)(O)CCCC1S(=O)(=O)OCCOS1(=O)=O
Response: -16.4

Request: Then CCC(C(=O)O)C1=CCCc2c(C)ccc(C)c21 (stereo unspecified) ?
Response: 25.3
